Tested on: Mycobacteroides abscessus
Assay: Antimicrobial activity against Mycobacterium abscessus R50 isolate after 3 to 5 days by broth microdilution method
Type: functional

# compound, tested.system, MIC [µg/mL]
measured = [
    ("NC[C@H]1O[C@H](O[C@H]2[C@H](O)[C@@H](O[C@H]3O[C@H](CO)[C@@H](O)[C@H](N)[C@H]3O)[C@H](N)C[C@@H]2N)[C@H](O)[C@@H](O)[C@@H]1O [KANAMYCIN]", "Mycobacteroides abscessus", 8),
    ("NCC[C@H](O)C(=O)N[C@@H]1C[C@H](N)[C@@H](O[C@H]2O[C@H](CN)[C@@H](O)[C@H](O)[C@H]2O)[C@H](O)[C@H]1O[C@H]1O[C@H](CO)[C@@H](O)[C@H](N)[C@H]1O [AMIKACIN]", "Mycobacteroides abscessus", 32),
    ("NC[C@H]1O[C@H](O[C@H]2C(O)[C@@H](O[C@H]3O[C@H](CO)[C@@H](O)[C@H](N)[C@H]3O)[C@H](N)C[C@@H]2N)[C@H](N)C[C@@H]1O (single isomer, unassigned) [TOBRAMYCIN]", "Mycobacteroides abscessus", 16),
]

====

Test system: Mycobacteroides abscessus
Assay: Antimicrobial activity against Mycobacterium abscessus after 3 to 5 days by broth microdilution method
Assay type: functional
MIC90 values for the molecules below.
metric: MIC90 (µg/mL)

# molecule, tested.system, metric, result.units, comparison.symbol, numeric.result
rows = [
    ("NC[C@H]1O[C@H](O[C@H]2[C@H](O)[C@@H](O[C@H]3O[C@H](CO)[C@@H](O)[C@H](N)[C@H]3O)[C@H](N)C[C@@H]2N)[C@H](O)[C@@H](O)[C@@H]1O [KANAMYCIN]", "Mycobacteroides abscessus", "MIC90", "µg/mL", "=", 8),
    ("CN[C@@H]1[C@@H](O)[C@@H](O[C@@H]2[C@@H](O)[C@H](O[C@H]3O[C@H](CN)[C@@H](O)[C@H](O)[C@H]3O)[C@@H](N)C[C@H]2NC(=O)[C@@H](O)CN)OC[C@]1(C)O [ISEPAMICIN]", "Mycobacteroides abscessus", "MIC90", "µg/mL", "=", 16),
    ("CN[C@@H]1[C@H](O[C@H]2[C@H](O[C@H]3[C@H](O)[C@@H](O)[C@H](N=C(N)N)[C@@H](O)[C@@H]3N=C(N)N)O[C@@H](C)[C@]2(O)C=O)O[C@@H](CO)[C@H](O)[C@H]1O (stereo in doubt) [STREPTOMYCIN]", "Mycobacteroides abscessus", "MIC90", "µg/mL", ">", 128),
    ("NCC[C@H](O)C(=O)N[C@@H]1C[C@H](N)[C@@H](O[C@H]2O[C@H](CN)[C@@H](O)[C@H](O)[C@H]2O)[C@H](O)[C@H]1O[C@H]1O[C@H](CO)[C@@H](O)[C@H](N)[C@H]1O [AMIKACIN]", "Mycobacteroides abscessus", "MIC90", "µg/mL", "=", 32),
    ("NC[C@H]1O[C@H](O[C@H]2C(O)[C@@H](O[C@H]3O[C@H](CO)[C@@H](O)[C@H](N)[C@H]3O)[C@H](N)C[C@@H]2N)[C@H](N)C[C@@H]1O (single isomer, unassigned) [TOBRAMYCIN]", "Mycobacteroides abscessus", "MIC90", "µg/mL", "=", 16),
]

====

log10 of MIC values for the molecules below.
Test system: Mycobacteroides abscessus
Test: Antimicrobial activity against Mycobacterium abscessus R53 isolate after 3 to 5 days by broth microdilution method
Format: functional
metric: log10 of MIC (log10 of the value in µg/mL)

# molecule, metric, numeric.result
rows = [
    ("NCC[C@H](O)C(=O)N[C@@H]1C[C@H](N)[C@@H](O[C@H]2O[C@H](CN)[C@@H](O)[C@H](O)[C@H]2O)[C@H](O)[C@H]1O[C@H]1O[C@H](CO)[C@@H](O)[C@H](N)[C@H]1O", "log10 of MIC", 1.51),
    ("CN[C@@H]1[C@H](O[C@H]2[C@H](O[C@H]3[C@H](O)[C@@H](O)[C@H](N=C(N)N)[C@@H](O)[C@@H]3N=C(N)N)O[C@@H](C)[C@]2(O)C=O)O[C@@H](CO)[C@H](O)[C@H]1O (stereo in doubt)", "log10 of MIC", 2.11),
    ("NC[C@H]1O[C@H](O[C@H]2C(O)[C@@H](O[C@H]3O[C@H](CO)[C@@H](O)[C@H](N)[C@H]3O)[C@H](N)C[C@@H]2N)[C@H](N)C[C@@H]1O (single isomer, unassigned)", "log10 of MIC", 0.90),
    ("CN[C@@H]1[C@@H](O)[C@@H](O[C@@H]2[C@@H](O)[C@H](O[C@H]3O[C@H](CN)[C@@H](O)[C@H](O)[C@H]3O)[C@@H](N)C[C@H]2NC(=O)[C@@H](O)CN)OC[C@]1(C)O", "log10 of MIC", 1.20),
    ("NC[C@H]1O[C@H](O[C@H]2[C@H](O)[C@@H](O[C@H]3O[C@H](CO)[C@@H](O)[C@H](N)[C@H]3O)[C@H](N)C[C@@H]2N)[C@H](O)[C@@H](O)[C@@H]1O", "log10 of MIC", 0.60),
]
